tested on: MALME-3M melanoma; assay: NCI-60 one-dose screen, 48 h; details: 10 µM unless noted
This is part of a sample that, as a whole, favours compounds with a hit. Of some 83,000 tested, about 20% had one in any assay. The source made the active and inactive calls. How the source made its calls: active means growth percent below 10; inactive means the rest.
# output must be one of t (active), f (inactive)

Below, 5 molecules whose answers are already recorded.
[
  {
    "molecule": "CCOC(=O)C1(N)CCCCC1",
    "group-label": "f"
  },
  {
    "molecule": "O=C(O)c1ccc(OCc2ccccc2)cc1",
    "group-label": "f"
  },
  {
    "molecule": "CCC1CCC(C)NC1 (configuration not stated)",
    "group-label": "f"
  },
  {
    "molecule": "COC1CC(OC(=O)c2ccc([N+](=O)[O-])cc2)C(COC(=O)c2ccc([N+](=O)[O-])cc2)O1 (configuration not stated)",
    "group-label": "f"
  },
  {
    "molecule": "Nc1ccn(C2CC(N)C(CO)O2)c(=O)n1 (configuration not stated)",
    "group-label": "f"
  }
]

Data request: Assay outcome for `C=C(C)[C@@H]1CC[C@]2(CO)CC[C@]3(C)[C@H](CC[C@@H]4[C@@]5(C)CC[C@H](O)C(C)(C)[C@@H]5CC[C@]43C)[C@@H]12` : what was it?
Data returned: f

Data request: What did the test return for `CCOC(=O)C(CCC#N)(CCC#N)C(=O)OCC` ?
Data returned: f

Data request: I would be grateful if you could indicate the recorded call for C=C1C(=O)C2CCC1C2 (configuration not stated) .
Data returned: f
